Test system: U2OS
Test: Multiplex assay against U2OS
Assay type: toxicity, cell-based
Settings: human, 12 h, 1 µM, compound concentration 1 uM, replicate 2
ENDPOINT: Population Tubulin-Different-Phenotype (%)
Form entry: value (%) — number only.

According to the records, this compound Cc1c(P(=S)(c2ccccc2)c2ccccc2)n2ccccc2[n+]1C/C=C/c1ccccc1.[Br-] displays Population Tubulin-Different-Phenotype (%) of 31

GET /value?item= CCOc1ccn(-c2ccc(F)cc2)c(=O)c1C(=O)Nc1ccc(Oc2ccnc(N)c2Cl)c(F)c1 &field=Population Tubulin-Different-Phenotype (%) returns 18

Reported Population Tubulin-Different-Phenotype (%) for N#Cc1cccc(C(=O)Nc2cc(-c3ccccc3)nn2-c2ccccc2)c1 was 16

For record CCOC(=O)CCNc1cc(N2CCc3ccccc3CC2)nc(-c2ccccn2)n1 the listed Population Tubulin-Different-Phenotype (%) is 23

Documented Population Tubulin-Different-Phenotype (%) of C=CC(=O)Nc1cc(-n2c(=O)ccc3cnc4ccc(-c5ccc(NS(C)(=O)=O)cc5)cc4c32)ccc1C : 10

// recorded Population Tubulin-Different-Phenotype (%) for Cl.Cn1c2c(c3ccc(Cl)c(Cl)c31)C(C#N)C1(CCNCC1)NC2=O (stereo not drawn) : 38

Per the records, this compound ( CN1C(=O)[C@@H](NC(=O)c2cc3ccccc3[nH]2)N=C(c2ccccc2)c2ccccc21 [DEVAZEPIDE] ) has Population Tubulin-Different-Phenotype (%) equal to 10

# Population Tubulin-Different-Phenotype (%) of Oc1cccc(-c2nc(N3CCOCC3)c3oc4ncccc4c3n2)c1 = 0

Reported Population Tubulin-Different-Phenotype (%) ( Cc1c(Nc2ccc(S(=O)(=O)N3CCN(C)CC3)cc2F)nc2ccc(Nc3cnn(C4CC4)c3)cn2c1=O ) = 34

// recorded Population Tubulin-Different-Phenotype (%) for CC(/C=C1\SC(=S)N(CCCC(=O)Nc2ccc(C(=O)O)c(O)c2)C1=O)=C\c1ccccc1 : 7

Entry CC[C@H](Nc1ncnc2[nH]cnc12)c1nc2cccc(F)c2c(=O)n1-c1ccccc1 — recorded Population Tubulin-Different-Phenotype (%) = 27

Entry CCCCCNC(=N)N/N=C/c1c[nH]c2ccc(OC)cc12.O=C(O)/C=C\C(=O)O [TEGASEROD MALEATE] — recorded Population Tubulin-Different-Phenotype (%) = 14

The value of Population Tubulin-Different-Phenotype (%) measured for the compound CN(c1cc(C(F)(F)F)nc(OCCC(=O)O)n1)c1cccc2c1CCC2 turned out to be 28

Noted for C[C@@H](Oc1cc(-n2cnc3ccc(CN4CCN(C)CC4)cc32)sc1C(N)=O)c1ccccc1C(F)(F)F : its Population Tubulin-Different-Phenotype (%) reads 30

Item: Cc1ccc(S(=O)(=O)NC2c3ccccc3Oc3ccccc32)cc1 | Population Tubulin-Different-Phenotype (%): 2

The compound listed as N#CCNC(=O)c1ccc(-c2ccnc(Nc3ccc(N4CCOCC4)cc3)n2)cc1 shows Population Tubulin-Different-Phenotype (%) equal to 11

Entry under test: NC(=O)c1ccc2nc(-c3ccc(C4(N)CCC4)cc3)c(-c3ccccc3)n2n1 . Its Population Tubulin-Different-Phenotype (%) was 35

Lab note: CCCc1cc(C)[nH]c(=O)c1CNC(=O)c1cc(-c2ccc(N3CCN(C(C)C)CC3)nc2)cc2c1cnn2C(C)C gave Population Tubulin-Different-Phenotype (%) of 94
